Source: paper PMC5748833

subject of test: rat monoamine oxidase B (Rattus norvegicus, UniProt P19643)
Construct: from tissue
Sequence (P19643 whole entry): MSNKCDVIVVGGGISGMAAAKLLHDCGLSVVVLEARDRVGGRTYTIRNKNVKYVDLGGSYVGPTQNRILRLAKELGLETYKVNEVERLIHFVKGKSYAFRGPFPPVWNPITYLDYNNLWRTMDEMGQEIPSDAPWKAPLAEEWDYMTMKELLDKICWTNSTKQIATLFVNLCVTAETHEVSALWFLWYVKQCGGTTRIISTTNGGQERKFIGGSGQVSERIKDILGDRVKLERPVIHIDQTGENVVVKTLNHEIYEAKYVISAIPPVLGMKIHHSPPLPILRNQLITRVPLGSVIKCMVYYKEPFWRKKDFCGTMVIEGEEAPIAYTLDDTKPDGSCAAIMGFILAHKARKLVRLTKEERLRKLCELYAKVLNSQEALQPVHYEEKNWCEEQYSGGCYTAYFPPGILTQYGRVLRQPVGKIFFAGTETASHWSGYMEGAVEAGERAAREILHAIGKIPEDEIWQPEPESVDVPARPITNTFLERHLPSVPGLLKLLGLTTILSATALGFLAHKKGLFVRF
protocol description: Inhibition of MAO-B (spectrofluorimetric method)
Assay type: biochemical
condition set: 10 μM compound
# note: exactly 9% is not below, so it is -1; use 1 for MAO-B (%) @ 10μΜ strictly under it

As a guide, the following entries are already answered.
{"columns": ["molecule", "label value"],
 "data": [
  ["Cc1cc(=O)oc2cc(OCC3=NOC(Cn4cnc5c(N6CCOCC6)ncnc54)C3)ccc12 (stereo not drawn) [11f]", 1],
  ["Cc1cc(=O)oc2ccc(OCC3CC(Cn4cnc5c(N6CCOCC6)ncnc54)=NO3)cc12 (stereo not drawn)", -1],
  ["O=c1ccc2ccc(OCc3cc(Cn4cnc5c(N6CCCCC6)ncnc54)no3)cc2o1 [13e]", -1]
]}

Now for another entry.
Problem: State whether 9% exceeds MAO-B (%) @ 10μΜ recorded for Cc1cc(=O)oc2ccc(OCc3cc(Cn4cnc5c(N6CCCCC6)ncnc54)no3)cc12 [13a] .
Result: -1

====

subject of test: soybean lipoxygenase (Glycine max, UniProt P08170)
Construct: purchased Sigma Chemical, Co. (St. Louis, MO, USA)
Sequence (P08170 1-839): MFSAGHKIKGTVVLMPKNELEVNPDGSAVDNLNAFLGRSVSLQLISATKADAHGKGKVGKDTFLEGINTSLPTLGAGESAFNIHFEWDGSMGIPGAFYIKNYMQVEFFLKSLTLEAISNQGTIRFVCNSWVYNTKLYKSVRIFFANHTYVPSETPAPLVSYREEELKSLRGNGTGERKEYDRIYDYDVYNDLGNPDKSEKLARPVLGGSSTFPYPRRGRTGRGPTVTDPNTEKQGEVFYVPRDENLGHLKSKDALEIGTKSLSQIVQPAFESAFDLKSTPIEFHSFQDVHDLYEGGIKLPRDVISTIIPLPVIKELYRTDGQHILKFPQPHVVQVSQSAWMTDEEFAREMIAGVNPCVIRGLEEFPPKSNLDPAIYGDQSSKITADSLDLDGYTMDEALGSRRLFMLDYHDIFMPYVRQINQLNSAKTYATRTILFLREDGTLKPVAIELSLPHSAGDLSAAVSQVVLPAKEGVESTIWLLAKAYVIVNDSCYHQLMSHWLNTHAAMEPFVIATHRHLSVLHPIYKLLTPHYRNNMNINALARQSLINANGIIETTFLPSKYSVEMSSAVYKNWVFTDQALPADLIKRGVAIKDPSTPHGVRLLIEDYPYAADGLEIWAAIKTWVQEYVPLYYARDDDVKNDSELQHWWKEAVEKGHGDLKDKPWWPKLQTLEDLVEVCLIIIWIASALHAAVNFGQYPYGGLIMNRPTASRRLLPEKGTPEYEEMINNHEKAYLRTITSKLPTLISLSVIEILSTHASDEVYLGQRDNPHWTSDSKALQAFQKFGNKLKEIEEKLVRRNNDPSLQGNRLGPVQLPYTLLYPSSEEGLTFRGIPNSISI
protocol description: Soybean lipoxygenase inhibition in vitro
Format: biochemical
condition set: 100 μM compound
quantity kind: %LOX @ 100μΜ

Examples with their reported %LOX @ 100μΜ follow.
{"columns": ["compound", "subject of test", "%LOX @ 100μΜ"],
 "data": [
  ["Cc1cc(=O)oc2cc(OCC3CC(Cn4cnc5c(N6CCCCC6)ncnc54)=NO3)ccc12 (centres unmarked) [4c]", "soybean lipoxygenase (Glycine max, UniProt P08170)", "no"],
  ["Cc1cc(=O)oc2cc(OCC3=NOC(Cn4cnc5c(N6CCOCC6)ncnc54)C3)ccc12 (centres unmarked) [11f]", "soybean lipoxygenase (Glycine max, UniProt P08170)", "no"],
  ["O=c1cc(OCC2CC(Cn3cnc4c(N5CCOCC5)ncnc43)=NO2)c2ccccc2o1 (centres unmarked) [4g]", "soybean lipoxygenase (Glycine max, UniProt P08170)", "10%"],
  ["O=c1ccc2ccc(OCc3cc(Cn4cnc5c(N6CCCC6)ncnc54)on3)cc2o1 [15c]", "soybean lipoxygenase (Glycine max, UniProt P08170)", "9%"],
  ["Cc1cc(=O)oc2cc(OCC3CC(Cn4cnc5c(N6CCCC6)ncnc54)=NO3)ccc12 (centres unmarked) [4e]", "soybean lipoxygenase (Glycine max, UniProt P08170)", "no"]
]}

Measured %LOX @ 100μΜ, Cc1cc(=O)oc2cc(OCc3cc(Cn4cnc5c(N6CCOCC6)ncnc54)no3)ccc12 [13d] : no

Measured %LOX @ 100μΜ, Cc1cc(=O)oc2ccc(OCC3=NOC(Cn4cnc5c(Cl)ncnc54)C3)cc12 (centres unmarked) [11b] : no

Measured %LOX @ 100μΜ, Cc1cc(=O)oc2ccc(OCC3=NOC(Cn4cnc5c(N6CCCCC6)ncnc54)C3)cc12 (centres unmarked) [11a] : no

Measured %LOX @ 100μΜ, O=c1ccc2ccc(OCC3=NOC(Cn4cnc5c(N6CCCCC6)ncnc54)C3)cc2o1 (centres unmarked) [11g] : no

Measured %LOX @ 100μΜ, Cc1cc(=O)oc2cc(OCC3=NOC(Cn4cnc5c(Cl)ncnc54)C3)ccc12 (centres unmarked) [11e] : no

Measured %LOX @ 100μΜ, Cc1cc(=O)oc2ccc(OCc3cc(Cn4cnc5c(N6CCCCC6)ncnc54)no3)cc12 [13a] : no

====

protocol description: Reducing activity of the stable radical DPPH
condition set: 100 μM compound, after 20 min
Quick list: RA% @ 100μΜ (reducing activity, DPPH) per entry.
Write the number in % without appending the unit.

Examples with their reported RA% @ 100μΜ (reducing activity, DPPH) follow.
{"columns": ["molecule", "RA% @ 100μΜ (reducing activity, DPPH) (%)"],
 "data": [
  ["O=c1cc(OCC2CC(Cn3cnc4c(N5CCCCC5)ncnc43)=NO2)c2ccccc2o1 (centres unmarked)", 3],
  ["Cc1cc(=O)oc2ccc(OC(=O)C3CC(Cn4cnc5c(N6CCOCC6)ncnc54)=NO3)cc12 (centres unmarked)", 12]
]}

Turning now to a further record.
Measured RA% @ 100μΜ (reducing activity, DPPH), O=C(Oc1ccc2oc(=O)ccc2c1)C1CC(Cn2cnc3c(N4CCOCC4)ncnc32)=NO1 (centres unmarked) : 3

====

protocol description: Reducing activity of the stable radical DPPH
condition set: 100 μM compound, after 20 min
quantity kind: RA% @ 100μΜ (reducing activity, DPPH)

Examples with their reported RA% @ 100μΜ (reducing activity, DPPH) follow.
{"columns": ["compound", "RA% @ 100μΜ (reducing activity, DPPH)"],
 "data": [
  ["Cc1cc(=O)oc2ccc(OCC3=NOC(Cn4cnc5c(Cl)ncnc54)C3)cc12 (stereo not shown) [11b]", "5%"],
  ["O=c1ccc2ccc(OCc3cc(Cn4cnc5c(N6CCOCC6)ncnc54)on3)cc2o1 [15b]", "no"],
  ["Cc1cc(=O)oc2ccc(OC(=O)C3CC(Cn4cnc5c(N6CCCCC6)ncnc54)=NO3)cc12 (stereo not shown) [4k]", "12%"],
  ["Cc1cc(=O)oc2cc(OCC3CC(Cn4cnc5c(N6CCCCC6)ncnc54)=NO3)ccc12 (stereo not shown) [4c]", "17%"],
  ["O=c1ccc2ccc(OCc3cc(Cn4cnc5c(N6CCCC6)ncnc54)on3)cc2o1 [15c]", "no"],
  ["O=c1ccc2ccc(OCc3cc(Cn4cnc5c(N6CCCCC6)ncnc54)no3)cc2o1 [13e]", "no"],
  ["Cc1cc(=O)oc2cc(OCCC3CC(Cn4cnc5c(N6CCCC6)ncnc54)=NO3)ccc12 (stereo not shown) [4j]", "44%"],
  ["O=C(Oc1ccc2oc(=O)ccc2c1)C1CC(Cn2cnc3c(N4CCCCC4)ncnc32)=NO1 (stereo not shown) [4n]", "17%"]
]}

Measured RA% @ 100μΜ (reducing activity, DPPH), Cc1cc(=O)oc2ccc(OCc3cc(Cn4cnc5c(N6CCCCC6)ncnc54)no3)cc12 [13a] : no

Measured RA% @ 100μΜ (reducing activity, DPPH), Cc1cc(=O)oc2ccc(OCc3cc(Cn4cnc5c(N6CCOCC6)ncnc54)no3)cc12 [13b] : no

====

subject of test: equine serum butyrylcholinesterase (esBChE) (Equus caballus)
Sequence (P81908 whole entry): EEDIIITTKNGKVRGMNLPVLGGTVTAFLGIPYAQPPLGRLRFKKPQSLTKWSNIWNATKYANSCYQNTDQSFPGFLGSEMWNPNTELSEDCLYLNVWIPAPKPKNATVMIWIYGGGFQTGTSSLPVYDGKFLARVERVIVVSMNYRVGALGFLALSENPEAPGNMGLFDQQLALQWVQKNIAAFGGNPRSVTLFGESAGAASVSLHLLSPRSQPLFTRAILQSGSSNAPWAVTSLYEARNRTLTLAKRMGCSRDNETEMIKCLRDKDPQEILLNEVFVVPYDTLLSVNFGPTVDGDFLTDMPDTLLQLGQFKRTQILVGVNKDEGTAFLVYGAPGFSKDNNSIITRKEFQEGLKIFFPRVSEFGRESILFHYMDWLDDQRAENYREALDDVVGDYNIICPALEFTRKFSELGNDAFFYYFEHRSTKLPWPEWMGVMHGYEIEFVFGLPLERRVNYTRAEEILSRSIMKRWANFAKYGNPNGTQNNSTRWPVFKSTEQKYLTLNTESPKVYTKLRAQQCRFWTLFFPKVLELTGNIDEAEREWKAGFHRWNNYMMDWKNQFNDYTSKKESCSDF
protocol description: Inhibition of esBChE (Ellman's test)
condition set: read-out: esBChE IC50 μΜ
quantity kind: pIC50
pIC50 is a log-scale quantity: -log10 of the concentration expressed in molar.

Entry O=c1ccc2ccc(OCc3cc(Cn4cnc5c(N6CCCCC6)ncnc54)no3)cc2o1 [13e] , tested on equine serum butyrylcholinesterase (esBChE) (Equus caballus), has a reported pIC50 of 4.74

====

subject of test: UniProt O42275
Sequence (O42275 24-633): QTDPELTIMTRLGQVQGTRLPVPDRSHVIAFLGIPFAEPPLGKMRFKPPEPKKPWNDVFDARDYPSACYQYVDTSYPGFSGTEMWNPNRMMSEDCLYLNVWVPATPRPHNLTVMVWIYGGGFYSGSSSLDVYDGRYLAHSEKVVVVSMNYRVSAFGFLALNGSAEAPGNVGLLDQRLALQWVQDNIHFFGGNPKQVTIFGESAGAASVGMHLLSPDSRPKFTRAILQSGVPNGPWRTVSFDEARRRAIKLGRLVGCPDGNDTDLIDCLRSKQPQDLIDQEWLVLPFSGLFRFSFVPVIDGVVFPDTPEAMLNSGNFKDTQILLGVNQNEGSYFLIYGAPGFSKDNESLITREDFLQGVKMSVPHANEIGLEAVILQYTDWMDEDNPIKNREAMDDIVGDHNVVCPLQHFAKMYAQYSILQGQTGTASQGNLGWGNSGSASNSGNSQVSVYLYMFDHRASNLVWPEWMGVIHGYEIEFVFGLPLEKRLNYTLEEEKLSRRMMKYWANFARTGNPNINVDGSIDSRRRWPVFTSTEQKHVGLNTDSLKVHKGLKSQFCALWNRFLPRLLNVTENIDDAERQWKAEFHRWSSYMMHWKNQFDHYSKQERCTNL
Quick list: pIC50 per entry.
pIC50 is a log-scale quantity: -log10 of the concentration expressed in molar.

Examples with their reported pIC50 follow.
{"columns": ["compound", "measured number"],
 "data": [
  ["Cc1cc(=O)oc2ccc(OCC3CC(Cn4cnc5c(N6CCOCC6)ncnc54)=NO3)cc12 (centres unmarked) [4b]", 5.64],
  ["O=c1cc(OCc2cc(Cn3cnc4c(N5CCOCC5)ncnc43)no2)c2ccccc2o1 [13i]", 5.30],
  ["Cc1cc(=O)oc2cc(OCC3=NOC(Cn4cnc5c(Cl)ncnc54)C3)ccc12 (centres unmarked) [11e]", 5.11],
  ["O=c1cc(OCC2CC(Cn3cnc4c(N5CCCCC5)ncnc43)=NO2)c2ccccc2o1 (centres unmarked) [4f]", 5.85]
]}

Turning now to a further record.
Entry O=c1ccc2ccc(OCc3cc(Cn4cnc5c(N6CCCCC6)ncnc54)no3)cc2o1 [13e] , tested on UniProt O42275, has a reported pIC50 of 5.76
